# method_description: Locust hemolymph kinetics after injection into the hemolymph (LCMS)
# condition_summary: Locusta migratoria, in vivo, 0.2 mg per locust (approximately)
property_label: concentration at 15 min (ng/mL)
// note: answer is a bare numeric in ng/mL

Ask | Reported concentration at 15 min, compound Cn1c(=O)c2c(ncn2C)n(C)c1=O : ____
Reply | 9010

---

# method_description: Locust hemolymph kinetics after injection into the hemolymph (LCMS)
# condition_summary: Locusta migratoria, in vivo, 0.4 mg per locust (approximately)
property_label: concentration at 15 min (ng/mL)
// note: answer is a bare numeric in ng/mL

Cn1c(=O)c2c(ncn2C)n(C)c1=O [caffeine] = 24000

Ask | Reported concentration at 15 min, compound CN(C)C(=O)C(CCN1CCC(O)(c2ccc(Cl)cc2)CC1)(c1ccccc1)c1ccccc1 [loperamide] : ____
Reply | 3000

Ask | Follow-up entry: O=C1CC2(CCCC2)CC(=O)N1CCCCN1CCN(c2ncccn2)CC1 [buspirone]
Reply | 6500
